# test.description: Intraocular and retinal drug concentration in rats after eye drops (HPLC)
# Format: in vivo
# details: both sexes, SD, rat, cornea, topical, 10 μL of 2% solution per eye, twice a day for 7 days, 16 h after administration, 2% eye drops twice a day, read-out: Content of test compound in Cornea
# Source text: 2.1 Experimental aminals: SPF grade male SD rats, weighed 180-200 g, were used and adaptively fed for one week. 2.2 Drugs and reagents: Compound 71 and Compound 8; sodium chloride injection (Guangxi Yuyuan Pharmaceutical Co., Ltd.); sterile filter having 0.22 μm pore size (Millex). 2.3 Experimental animal grouping: the animals were randomly divided into 3 groups (6 rats per group) of a negative control group (normal saline), a Compound 71 group and a Compound 8 group. […]
parameter: concentration at 16 h after the second eye drop on Day 7 (ng/g)

{"columns": ["structure.smiles.string", "unit.abbrev", "value"],
 "data": [
  ["CCOc1ccc(-c2ccc(NC(=O)N[C@H]3CC[C@H](C)CC3)cc2-c2nn[nH]n2)cn1", "ng/g", 43500],
  ["CCOc1ccc(-c2c(F)cc(NC(=O)N3CCC(C(C)(C)C)CC3)cc2-c2nn[nH]n2)cn1", "ng/g", 40700]
]}

Origin of values: patent US20250353835A1
